Hey, just so you know, these numbers are from ChEMBL document CHEMBL5365422.

Exercise: state measured metabolised at 1.5 h for each of the compounds provided.
test: Stability of compound in human plasma assessed as drug degradation at 37 degC measured after 90 mins by LC-MS analysis; format: ADME, cell-free; conditions: read-out: Drug degradation
Give your result as the value with the unit written after it.

Worked set:
C#CCn1cccc1CC1c2ccccc2N(c2c(Cl)cccc2Cl)C1O (stereo not drawn) ... 4%
COc1cc(CC2C(=O)N(c3c(Cl)cccc3Cl)c3ccccc32)cc(OC)c1OC (stereo not drawn) ... 4%

For the next question, use this compound.
Query string: Suppose we examine the compound C#CCn1cc(Cc2c(O)n(-c3c(Cl)cccc3Cl)c3ccccc23)c2ccccc21 ; what metabolised at 1.5 h value has been reported?
Result string: 4%

* * *

test: Solubility of the compound in PBS buffer by UV spectrum based solubility assay; type: physicochemical
measurement-kind: solubility (µM)
One number for each entry, in µM.

Query string: GET /values?readout=solubility&item= O=C1C(Cc2ccc[nH]2)c2ccccc2N1c1c(Cl)cccc1Cl (stereo unspecified)
Result string: 26

* * *

test: Stability of compound in human plasma assessed as drug degradation at 37 degC measured after 90 mins by LC-MS analysis; type: ADME, cell-free; conditions: read-out: Drug degradation
measurement-kind: metabolised at 1.5 h
Give the number first and the unit second.

Below, 4 compounds whose answers are already recorded.
C=CCn1cccc1CC1C(=O)N(c2c(Cl)cccc2Cl)c2ccccc21 (stereo not given) ... 4%
O=C1C(Cc2c[nH]c3ccccc23)c2ccccc2N1c1c(Cl)cccc1Cl (stereo not given) ... 4%
O=C1C(Cc2ccc[nH]2)c2ccccc2N1c1c(Cl)cccc1Cl (stereo not given) ... 4%
CCOC(=O)Cn1cccc1CC1c2ccccc2N(c2c(Cl)cccc2Cl)C1O (stereo not given) ... 4%

Provide metabolised at 1.5 h values for the following items, in order.
1. O=C(O)Cn1cc(Cc2c(O)n(-c3c(Cl)cccc3Cl)c3ccccc23)c2ccccc21
2. C=CCn1cc(Cc2c(O)n(-c3c(Cl)cccc3Cl)c3ccccc23)c2ccccc21

Result string:
4%
4%

Could you tell me metabolised at 1.5 h for each of these compounds? They are listed below.
1. O=C1C(Cc2cccn2Cc2ccccc2)c2ccccc2N1c1c(Cl)cccc1Cl (stereo not given)
2. Oc1c(Cc2cn(Cc3ccccc3)c3ccccc23)c2ccccc2n1-c1c(Cl)cccc1Cl
3. CCOC(=O)Cn1cc(Cc2c(O)n(-c3c(Cl)cccc3Cl)c3ccccc23)c2ccccc21

Result string:
1: 4%; 2: 4%; 3: 4%

Query string: For the compound shown here, O=C(O)Cn1cccc1Cc1c(O)n(-c2c(Cl)cccc2Cl)c2ccccc12 , give the reported metabolised at 1.5 h.
Result string: 4%

* * *

Please go through the items and note down their K.
molecular target: Albumin (Homo sapiens, UniProt P02768); test: Binding affinity to human serum albumin in phosphate buffer at pH 7.4 incubated at 298 K
Sequence (P02768 whole entry): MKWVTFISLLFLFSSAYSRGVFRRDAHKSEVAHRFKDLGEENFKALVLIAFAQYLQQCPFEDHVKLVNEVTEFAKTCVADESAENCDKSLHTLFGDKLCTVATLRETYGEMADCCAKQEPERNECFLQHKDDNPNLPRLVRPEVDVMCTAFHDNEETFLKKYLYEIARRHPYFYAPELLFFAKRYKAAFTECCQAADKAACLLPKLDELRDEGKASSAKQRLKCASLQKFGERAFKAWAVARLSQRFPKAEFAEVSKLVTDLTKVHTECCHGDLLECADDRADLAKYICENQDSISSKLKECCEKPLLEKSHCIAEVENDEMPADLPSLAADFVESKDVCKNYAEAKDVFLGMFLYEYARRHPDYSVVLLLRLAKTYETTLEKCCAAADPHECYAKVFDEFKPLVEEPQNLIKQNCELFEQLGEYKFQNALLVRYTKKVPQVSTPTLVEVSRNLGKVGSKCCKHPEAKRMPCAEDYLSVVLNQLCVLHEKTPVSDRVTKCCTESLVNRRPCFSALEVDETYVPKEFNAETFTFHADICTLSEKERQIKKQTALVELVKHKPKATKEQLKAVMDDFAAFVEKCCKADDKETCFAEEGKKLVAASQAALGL

Lab note: each molecule below needs its K filled in.
1. O=C(O)Cn1cc(Cc2c(O)n(-c3c(Cl)cccc3Cl)c3ccccc23)c2ccccc21
2. C#CCn1cc(Cc2c(O)n(-c3c(Cl)cccc3Cl)c3ccccc23)c2ccccc21
3. O=C(O)Cn1cccc1Cc1c(O)n(-c2c(Cl)cccc2Cl)c2ccccc12
4. O=C1C(Cc2c[nH]c3ccccc23)c2ccccc2N1c1c(Cl)cccc1Cl (stereo not drawn)
5. O=C1C(Cc2cccn2Cc2ccccc2)c2ccccc2N1c1c(Cl)cccc1Cl (stereo not drawn)
6. C#CCn1cccc1CC1c2ccccc2N(c2c(Cl)cccc2Cl)C1O (stereo not drawn)

Result string:
["5.2 10^4/M", "1.1 10^4/M", "1.4 10^4/M", "1.1 10^3/M", "1.2 10^4/M", "4.1 10^4/M"]

* * *

test: Half life in human liver microsome by LC-MS/MS analysis; type: ADME; conditions: liver microsomes
measurement-kind: half-life

Query string: Look up half-life: O=C1C(Cc2ccc[nH]2)c2ccccc2N1c1c(Cl)cccc1Cl (stereo unspecified)
Result string: 90 min

* * *

Exercise: for every item that follows, state its recorded IC50.
Sequence of the target: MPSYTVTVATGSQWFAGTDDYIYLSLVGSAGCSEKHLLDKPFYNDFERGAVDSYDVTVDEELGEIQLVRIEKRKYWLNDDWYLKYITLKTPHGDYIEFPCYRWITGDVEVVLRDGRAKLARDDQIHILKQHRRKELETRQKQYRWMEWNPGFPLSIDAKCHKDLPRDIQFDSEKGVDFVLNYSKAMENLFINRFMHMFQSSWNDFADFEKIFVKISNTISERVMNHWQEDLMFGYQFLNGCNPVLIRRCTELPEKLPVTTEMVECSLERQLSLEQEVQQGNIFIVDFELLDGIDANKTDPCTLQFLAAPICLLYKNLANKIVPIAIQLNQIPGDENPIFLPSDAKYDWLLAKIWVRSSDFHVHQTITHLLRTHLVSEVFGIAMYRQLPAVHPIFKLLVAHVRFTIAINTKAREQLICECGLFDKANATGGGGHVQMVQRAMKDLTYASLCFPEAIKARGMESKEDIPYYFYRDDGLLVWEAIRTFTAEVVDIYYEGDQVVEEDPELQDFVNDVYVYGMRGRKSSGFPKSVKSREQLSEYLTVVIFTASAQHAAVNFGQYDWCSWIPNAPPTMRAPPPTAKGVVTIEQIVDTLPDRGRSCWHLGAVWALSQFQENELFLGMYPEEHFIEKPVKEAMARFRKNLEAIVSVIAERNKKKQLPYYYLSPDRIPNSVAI
Give bare numbers, in nM.

Known IC50 results, listed for orientation:
C=CCn1cccc1CC1C(=O)N(c2c(Cl)cccc2Cl)c2ccccc21 (stereo not given) ... 1770
COc1cc(CC2C(=O)N(c3c(Cl)cccc3Cl)c3ccccc32)cc(OC)c1OC (stereo not given) ... 260
O=C1C(Cc2ccc[nH]2)c2ccccc2N1c1c(Cl)cccc1Cl (stereo not given) ... 30
CCOC(=O)Cn1cccc1CC1c2ccccc2N(c2c(Cl)cccc2Cl)C1O (stereo not given) ... 1310
C=CCn1cc(Cc2c(O)n(-c3c(Cl)cccc3Cl)c3ccccc23)c2ccccc21 ... 70

List IC50 for every entry below, keeping the order given.
1. O=C(O)Cn1cccc1Cc1c(O)n(-c2c(Cl)cccc2Cl)c2ccccc12
2. C#CCn1cccc1CC1c2ccccc2N(c2c(Cl)cccc2Cl)C1O (stereo not given)
3. CCOC(=O)Cn1cc(Cc2c(O)n(-c3c(Cl)cccc3Cl)c3ccccc23)c2ccccc21
4. O=C(O)Cn1cc(Cc2c(O)n(-c3c(Cl)cccc3Cl)c3ccccc23)c2ccccc21
5. O=C1C(Cc2c[nH]c3ccccc23)c2ccccc2N1c1c(Cl)cccc1Cl (stereo not given)

Result string:
1. 430
2. 250
3. 630
4. 1230
5. 310

* * *

target: Albumin (Homo sapiens, UniProt P02768); assay: Binding affinity to human serum albumin in phosphate buffer at pH 7.4 incubated at 298 K
measurement-kind: K

C=CCn1cccc1CC1C(=O)N(c2c(Cl)cccc2Cl)c2ccccc21 (configuration not stated) ... 1.7 10^4/M

Give K for each listed item.
1. COc1cc(CC2C(=O)N(c3c(Cl)cccc3Cl)c3ccccc32)cc(OC)c1OC (configuration not stated)
2. CCOC(=O)Cn1cccc1CC1c2ccccc2N(c2c(Cl)cccc2Cl)C1O (configuration not stated)

Result string:
["6.9 10^4/M", "1.4 10^4/M"]

Hi team, please reply with K for each item in this list.
1. Oc1c(Cc2cn(Cc3ccccc3)c3ccccc23)c2ccccc2n1-c1c(Cl)cccc1Cl
2. C=CCn1cc(Cc2c(O)n(-c3c(Cl)cccc3Cl)c3ccccc23)c2ccccc21
3. CCOC(=O)Cn1cc(Cc2c(O)n(-c3c(Cl)cccc3Cl)c3ccccc23)c2ccccc21
4. O=C1C(Cc2ccc[nH]2)c2ccccc2N1c1c(Cl)cccc1Cl (configuration not stated)

Result string:
["1.4 10^4/M", "7.6 10^2/M", "2.7 10^3/M", "3.8 10^4/M"]
